The entries below pair compounds with IC50 values for GCN2 (Homo sapiens (Human)), as found in several publications.

Some compounds with recorded IC50:
Query: Short answer please: IC50, GCN2 (Homo sapiens (Human)), entry Cc1[nH]ncc1[C@H]1CN(c2ccnc(-c3cnc4ccc(C(F)(F)F)cn34)n2)C[C@H](C)O1
Result: 10 to 100 nM

Query: Short answer please: IC50, GCN2 (Homo sapiens (Human)), entry C[C@@H]1[C@H]([C@@H](C)NS(C)(=O)=O)N(C2CC2)CCN1c1ccnc(-c2cnc3ccc(C(F)(F)F)cn23)n1
Result: 100 to 1000 nM

Query: Short answer please: IC50, GCN2 (Homo sapiens (Human)), entry C[C@@H]1C[C@H](N=S(C)(C)=O)CN(c2ccnc(-c3cnc4ccc(C5CC5)cn34)n2)C1
Result: 10 to 100 nM

Query: Short answer please: IC50, GCN2 (Homo sapiens (Human)), entry FC(F)(F)c1ccc2ncc(-c3nccc(N4CCN(C5CCOCC5)C(c5cn[nH]c5)C4)n3)n2c1 (stereo not shown)
Result: 10 to 100 nM

Query: Short answer please: IC50, GCN2 (Homo sapiens (Human)), entry CN[C@H]1CC[C@H](Nc2ncc3cc(-c4c(F)ccc(NS(=O)(=O)c5ccccc5Cl)c4F)ccc3n2)CC1
Result: 63.2 nM

---
Query: Short answer please: IC50, GCN2 (Homo sapiens (Human)), entry CCOCCn1cc(-c2ccc(-n3cnc4cnc(N[C@@H]5CC[C@@H](C(N)=O)C5)nc43)cc2)cn1
Result: < 1000 nM

Query: Short answer please: IC50, GCN2 (Homo sapiens (Human)), entry c1ccc2ncc(-c3cncc4nc(Nc5ccc(N6CCOCC6)cc5)nn34)cc2c1
Result: 1000 to 5000 nM

----------
The entries below pair compounds with IC50 values for GCN2 (Homo sapiens (Human), UniProt Q9P2K8), as found in several publications.

Some compounds with recorded IC50:
Query: Short answer please: IC50, GCN2 (Homo sapiens (Human), UniProt Q9P2K8), entry Cc1cnc(N2C[C@H](C)C[C@H](N=S(C)(C)=O)C2)nc1-c1cnc2ccc(Cl)cn12
Result: 100 to 1000 nM

Query: Short answer please: IC50, GCN2 (Homo sapiens (Human), UniProt Q9P2K8), entry Cc1cnc(N2C[C@@H](c3cn[nH]c3C)O[C@@H](C)C2)nc1-c1cnc2ccc(Cl)cn12
Result: 10 to 100 nM

Query: Short answer please: IC50, GCN2 (Homo sapiens (Human), UniProt Q9P2K8), entry NC(=O)C1CN(c2ccnc(-c3cnc4ccc(Cl)cn34)n2)CCN1C1CC1 (centres unmarked)
Result: < 10 nM

Query: Short answer please: IC50, GCN2 (Homo sapiens (Human), UniProt Q9P2K8), entry c1ccc(Oc2ccc3ncc(-c4nccc(N5CCC[C@H](c6cn[nH]c6)C5)n4)n3c2)cc1
Result: 100 to 1000 nM

Query: Short answer please: IC50, GCN2 (Homo sapiens (Human), UniProt Q9P2K8), entry CC1CC1CN1CCN(c2ccnc(-c3cnc4ccc(C(F)(F)F)cn34)n2)CC1c1cn[nH]c1 (centres unmarked)
Result: < 10 nM

Query: Short answer please: IC50, GCN2 (Homo sapiens (Human), UniProt Q9P2K8), entry COc1ncc(Cl)cc1S(=O)(=O)Nc1ccc(Cl)c(-c2ccc3nc(NC4CCS(=O)(=O)C4)ncc3c2)c1Cl (centres unmarked)
Result: 25.3 nM

Query: Short answer please: IC50, GCN2 (Homo sapiens (Human), UniProt Q9P2K8), entry Cc1[nH]ncc1[C@H]1CN(c2ccnc(-c3cnc4cc(F)c(C5CC5)cn34)n2)C[C@H](C)O1
Result: 10 to 100 nM

Now look at this one.
Query: Short answer please: IC50, GCN2 (Homo sapiens (Human), UniProt Q9P2K8), entry CN1CC(=O)Nc2cccc(c2)Nc2ncc(F)c(n2)Nc2ccc3c(c2)NC(=O)[C@@](C)(O3)C1=O (single isomer, unassigned)
Result: 3000 to 50000 nM
